System: M. mycetomatis strain mm55
Conditions: primary screen, metabolic activity vs growth control; 96 h, 2 µM; inhibitor
Counter-ions that a name gives are not always drawn. The whole screen tested about 5,300 compounds, of which about 130 (2.5%) showed an effect of 50% or more. This is one part of a sample in which strong results are shown more often than they occur.
Mark each entry 1.0 if its % viability sits below 80%, and 0.0 for all others.

[[record]]
molecule = "Cc1cccc(NC(=O)N[C@@H]2N=C(c3ccccc3)c3ccccc3N(CC(=O)c3ccccc3C)C2=O)c1 [ONC0005568, ym022]"
assigned_label = 0.0

[[record]]
molecule = "CCCC(=O)Nc1ccc(OCC(O)CNC(C)C)c(C(C)=O)c1 (stereo not drawn) [ONC0003369, acebutolol hydrochloride]"
assigned_label = 1.0

[[record]]
molecule = "CCCC[C@H](C)C[C@H](O)/C=C/[C@H]1[C@H](O)CC(=O)[C@@H]1CCCC/C=C/C(=O)O [ONC0005482, limaprost]"
assigned_label = 0.0

[[record]]
molecule = "COC(=O)Nc1nc2ccc([S+]([O-])c3ccccc3)cc2[nH]1 (stereo not drawn) [ONC0004180, oxfendazole]"
assigned_label = 1.0

[[record]]
molecule = "Cc1nc2cc(-n3ncc(C(=O)c4cc5ccccc5[nH]4)c3N)ccc2[nH]1 [ONC0004455, ch5183284 debio1347]"
assigned_label = 0.0


====

Test system: M. mycetomatis strain mm55
Conditions: primary screen, metabolic activity vs growth control; 96 h, 2 µM; inhibitor
Where a name gives a salt, the structure may show the parent alone. Hit rate of the full screen: of about 5,300 compounds, about 130 (2.5%) showed an effect of 50% or more. The list comes from a sample in which strong results are over-represented; it also holds close analogues and randomly drawn compounds.
Examples of molecules with documented % viability follow.
measure: % viability (%)

[[record]]
molecule = "Nc1nc(O)c2ncn(COC(CO)CO)c2n1 [ONC0003983, ganciclovir hydrate]"
numeric_value = 92.25

[[record]]
molecule = "O=C1NC(=O)/C(=C\\c2cccc(C(F)(F)F)c2)S1"
numeric_value = 130.7

[[record]]
molecule = "CN(C)CC/C=C1/c2ccccc2COc2ccc(CC(=O)O)cc21 [ONC0004990, olopatadine hydrochloride opatanol]"
numeric_value = 101

[[record]]
molecule = "COc1cccc2c1C(=O)c1c(O)c3c(c(O)c1C2=O)C[C@@](O)(C(C)=O)C[C@@H]3O[C@H]1C[C@H](N)[C@H](O)[C@H](C)O1"
numeric_value = 72.25

[[record]]
molecule = "CCCCCCCCCCCCOCCOCCOCCOCCOCCOCCOCCOCCOCCO"
numeric_value = 78.72

[[record]]
molecule = "Cc1ccc(Cl)c(OCC(O)CNC(C)C)c1 (stereo not shown)"
numeric_value = 103

[[record]]
molecule = "CO/N=C(/C(=O)NC1C(=O)N2C(C(=O)O)=C(C[N+]3(C)CCCC3)CSC12)c1csc(N)n1 (stereo not shown) [ONC0000506, cefepime hydrochloride]"
numeric_value = 66.95

[[record]]
molecule = "C[C@@H](NCCc1ccc(O)cc1)[C@@H](O)c1ccc(O)cc1 (racemic) [ONC0000689, ritodrine hydrochloride]"
numeric_value = 122.8

[[record]]
molecule = "CN1C/C=C/CCOc2cccc(c2)-c2ccnc(n2)Nc2cccc(c2)C1"
numeric_value = 86.64

[[record]]
molecule = "O=C(CC1CC(c2ccc(F)cc2F)=NO1)N1CCOCC1 (stereo not shown)"
numeric_value = 89.07

